As an illustration, consider measured IC50 for molecules on Aurora kinase B (Homo sapiens, UniProt Q96GD4).
Sequence (Q96GD4 whole entry): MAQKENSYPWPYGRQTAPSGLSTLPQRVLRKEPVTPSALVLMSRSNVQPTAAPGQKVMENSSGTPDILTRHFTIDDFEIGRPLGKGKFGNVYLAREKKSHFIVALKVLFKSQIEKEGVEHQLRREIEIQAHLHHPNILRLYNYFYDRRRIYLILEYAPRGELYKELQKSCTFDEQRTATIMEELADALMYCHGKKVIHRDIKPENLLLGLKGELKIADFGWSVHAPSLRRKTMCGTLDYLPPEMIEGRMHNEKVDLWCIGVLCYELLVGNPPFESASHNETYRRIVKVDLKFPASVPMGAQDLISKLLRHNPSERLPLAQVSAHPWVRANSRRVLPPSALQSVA
The reply should contain only the number, in µM.

The following molecules have reported results that may help.
| mol-smiles | IC50 / µM |
| --- | --- |
| Fc1cc(-c2nc3ccccc3s2)ccc1Nc1ncnc2ccsc12 | 0.29 |
| COc1cc(Nc2nccc(Nc3cc(C)n[nH]3)n2)ccc1-c1nc2ccccc2s1 | 3.1 |

Next molecule, please.
Write down measured IC50 (Aurora kinase B (Homo sapiens, UniProt Q96GD4)) for this molecule. "COc1cc2ncnc(Nc3ccc(F)c(Cl)c3)c2cc1OC"
7.4

---

Consider the following compounds and their measured IC50 readings.
Molecular target: UniProtKB Q02763
Sequence (Q02763 whole entry): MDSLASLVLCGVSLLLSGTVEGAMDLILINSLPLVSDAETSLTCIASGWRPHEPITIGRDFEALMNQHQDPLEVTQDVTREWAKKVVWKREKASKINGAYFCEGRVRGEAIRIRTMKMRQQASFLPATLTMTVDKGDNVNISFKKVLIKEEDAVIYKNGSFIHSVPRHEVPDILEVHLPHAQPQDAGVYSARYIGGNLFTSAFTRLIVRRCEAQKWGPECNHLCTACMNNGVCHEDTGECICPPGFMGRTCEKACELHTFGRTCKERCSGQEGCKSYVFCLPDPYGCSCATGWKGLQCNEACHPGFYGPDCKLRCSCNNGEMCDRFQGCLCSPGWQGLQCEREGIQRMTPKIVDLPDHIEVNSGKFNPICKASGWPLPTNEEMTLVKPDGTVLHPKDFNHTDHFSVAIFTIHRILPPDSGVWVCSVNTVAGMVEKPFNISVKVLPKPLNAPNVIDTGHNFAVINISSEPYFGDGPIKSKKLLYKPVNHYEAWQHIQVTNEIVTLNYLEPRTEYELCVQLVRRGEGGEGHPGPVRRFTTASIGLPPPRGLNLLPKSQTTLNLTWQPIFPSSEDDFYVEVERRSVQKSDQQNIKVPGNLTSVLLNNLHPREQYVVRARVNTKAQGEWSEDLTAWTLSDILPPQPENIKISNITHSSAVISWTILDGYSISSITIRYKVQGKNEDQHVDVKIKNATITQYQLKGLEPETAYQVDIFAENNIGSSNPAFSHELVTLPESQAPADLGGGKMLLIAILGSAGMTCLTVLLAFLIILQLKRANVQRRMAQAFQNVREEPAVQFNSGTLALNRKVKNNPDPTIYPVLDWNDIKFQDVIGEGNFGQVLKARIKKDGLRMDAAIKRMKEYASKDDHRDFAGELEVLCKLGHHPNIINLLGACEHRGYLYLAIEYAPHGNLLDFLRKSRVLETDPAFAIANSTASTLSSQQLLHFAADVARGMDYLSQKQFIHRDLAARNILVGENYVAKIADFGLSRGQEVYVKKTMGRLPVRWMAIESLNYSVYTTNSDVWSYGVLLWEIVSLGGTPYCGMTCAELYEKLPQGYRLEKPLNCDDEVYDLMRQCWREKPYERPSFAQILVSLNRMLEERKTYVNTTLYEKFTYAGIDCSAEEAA
Assay: Inhibition of TIE2 by virtual HTS assay
Provide the reading as a plain figure in µM.

The examples below pair each entry with its known result.
| mol-smiles | units | IC50 |
| --- | --- | --- |
| c1ccc2sc(-c3ccc(Nc4ncnc5[nH]ccc45)cc3)nc2c1 | µM | 1.9 |
| COc1cc(Nc2ncnc3[nH]ccc23)ccc1-c1nc2ccccc2s1 | µM | 8.6 |
| Clc1ccc2c(Nc3ccc(-c4nc5ccccc5s4)cc3)ccnc2c1 | µM | 7 |
| O=C(NC(=S)Nc1ccc(O)c(-c2nc3ccccc3s2)c1)c1ccc([N+](=O)[O-])cc1 | µM | 3 |

Now, please, on to the next compound.
Identify measured IC50 associated with "COc1nc(Nc2ccc(-c3nc4ccccc4s3)cc2)c2cc[nH]c2n1"
8.7

---

This document collects IC50 values reported for Vascular endothelial growth factor receptor 3 (Homo sapiens, UniProt P35916).

Recorded IC50, per entry:
| mol-smiles | IC50 |
| --- | --- |
| CN1CCN(c2ccnc(Nc3ccc(-c4nc5ccccc5s4)cc3)n2)CC1 | 5.2 µM |
| O=C(NC(=S)Nc1ccc(O)c(-c2nc3ccccc3s2)c1)c1ccc([N+](=O)[O-])cc1 | 1 µM |
| COc1cc(Nc2ncnc3[nH]ccc23)ccc1-c1nc2ccccc2s1 | > 10 µM |
| Cc1cc(Nc2cc(Nc3ccc(-c4nc5ccccc5s4)cc3)ccn2)[nH]n1 | 6.5 µM |

Now take the following molecule into account.
Under Vascular endothelial growth factor receptor 3 (Homo sapiens, UniProt P35916): report IC50 of "c1ccc2sc(-c3ccc(Nc4ncnc5[nH]ccc45)cc3)nc2c1" .
2.1 µM

---

Target: Focal adhesion kinase 1 (Homo sapiens)
Sequence (Q05397 whole entry): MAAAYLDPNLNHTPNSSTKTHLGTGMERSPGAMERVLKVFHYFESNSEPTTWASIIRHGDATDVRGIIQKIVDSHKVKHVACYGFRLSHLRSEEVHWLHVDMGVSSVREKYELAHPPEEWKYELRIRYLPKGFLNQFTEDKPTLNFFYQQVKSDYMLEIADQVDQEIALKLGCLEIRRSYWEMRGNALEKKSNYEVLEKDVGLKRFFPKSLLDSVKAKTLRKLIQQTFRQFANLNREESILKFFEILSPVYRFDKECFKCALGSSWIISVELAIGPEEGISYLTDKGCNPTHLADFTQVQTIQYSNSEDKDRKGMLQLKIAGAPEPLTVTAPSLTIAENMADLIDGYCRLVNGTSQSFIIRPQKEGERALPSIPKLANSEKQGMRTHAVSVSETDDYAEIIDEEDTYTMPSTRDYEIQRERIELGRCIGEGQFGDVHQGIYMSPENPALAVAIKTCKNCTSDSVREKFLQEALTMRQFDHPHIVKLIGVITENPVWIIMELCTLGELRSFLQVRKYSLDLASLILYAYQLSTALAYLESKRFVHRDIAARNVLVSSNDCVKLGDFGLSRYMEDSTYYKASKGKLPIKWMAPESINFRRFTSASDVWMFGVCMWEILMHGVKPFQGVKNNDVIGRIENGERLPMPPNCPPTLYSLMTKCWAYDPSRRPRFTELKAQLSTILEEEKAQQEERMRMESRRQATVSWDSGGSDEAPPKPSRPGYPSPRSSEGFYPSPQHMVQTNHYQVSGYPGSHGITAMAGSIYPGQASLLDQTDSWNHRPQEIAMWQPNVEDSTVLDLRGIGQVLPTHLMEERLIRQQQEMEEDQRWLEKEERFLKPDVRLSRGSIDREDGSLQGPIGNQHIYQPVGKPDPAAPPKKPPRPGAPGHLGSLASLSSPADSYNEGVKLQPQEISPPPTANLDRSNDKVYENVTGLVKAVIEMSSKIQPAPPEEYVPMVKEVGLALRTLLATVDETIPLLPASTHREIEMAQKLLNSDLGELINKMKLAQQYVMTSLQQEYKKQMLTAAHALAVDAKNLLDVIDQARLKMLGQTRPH
parameter-measured: pIC50
// scale note: pIC50 = -log10(conc_M); give the bare number

Lab note: Focal adhesion kinase 1 (Homo sapiens) assay, enter pIC50 for "O=C(NC(=S)Nc1ccc(O)c(-c2nc3ccccc3s2)c1)c1ccc([N+](=O)[O-])cc1" here
6.05

---

Molecular target: Vascular endothelial growth factor receptor 2 (Homo sapiens)
Sequence (P35968 whole entry): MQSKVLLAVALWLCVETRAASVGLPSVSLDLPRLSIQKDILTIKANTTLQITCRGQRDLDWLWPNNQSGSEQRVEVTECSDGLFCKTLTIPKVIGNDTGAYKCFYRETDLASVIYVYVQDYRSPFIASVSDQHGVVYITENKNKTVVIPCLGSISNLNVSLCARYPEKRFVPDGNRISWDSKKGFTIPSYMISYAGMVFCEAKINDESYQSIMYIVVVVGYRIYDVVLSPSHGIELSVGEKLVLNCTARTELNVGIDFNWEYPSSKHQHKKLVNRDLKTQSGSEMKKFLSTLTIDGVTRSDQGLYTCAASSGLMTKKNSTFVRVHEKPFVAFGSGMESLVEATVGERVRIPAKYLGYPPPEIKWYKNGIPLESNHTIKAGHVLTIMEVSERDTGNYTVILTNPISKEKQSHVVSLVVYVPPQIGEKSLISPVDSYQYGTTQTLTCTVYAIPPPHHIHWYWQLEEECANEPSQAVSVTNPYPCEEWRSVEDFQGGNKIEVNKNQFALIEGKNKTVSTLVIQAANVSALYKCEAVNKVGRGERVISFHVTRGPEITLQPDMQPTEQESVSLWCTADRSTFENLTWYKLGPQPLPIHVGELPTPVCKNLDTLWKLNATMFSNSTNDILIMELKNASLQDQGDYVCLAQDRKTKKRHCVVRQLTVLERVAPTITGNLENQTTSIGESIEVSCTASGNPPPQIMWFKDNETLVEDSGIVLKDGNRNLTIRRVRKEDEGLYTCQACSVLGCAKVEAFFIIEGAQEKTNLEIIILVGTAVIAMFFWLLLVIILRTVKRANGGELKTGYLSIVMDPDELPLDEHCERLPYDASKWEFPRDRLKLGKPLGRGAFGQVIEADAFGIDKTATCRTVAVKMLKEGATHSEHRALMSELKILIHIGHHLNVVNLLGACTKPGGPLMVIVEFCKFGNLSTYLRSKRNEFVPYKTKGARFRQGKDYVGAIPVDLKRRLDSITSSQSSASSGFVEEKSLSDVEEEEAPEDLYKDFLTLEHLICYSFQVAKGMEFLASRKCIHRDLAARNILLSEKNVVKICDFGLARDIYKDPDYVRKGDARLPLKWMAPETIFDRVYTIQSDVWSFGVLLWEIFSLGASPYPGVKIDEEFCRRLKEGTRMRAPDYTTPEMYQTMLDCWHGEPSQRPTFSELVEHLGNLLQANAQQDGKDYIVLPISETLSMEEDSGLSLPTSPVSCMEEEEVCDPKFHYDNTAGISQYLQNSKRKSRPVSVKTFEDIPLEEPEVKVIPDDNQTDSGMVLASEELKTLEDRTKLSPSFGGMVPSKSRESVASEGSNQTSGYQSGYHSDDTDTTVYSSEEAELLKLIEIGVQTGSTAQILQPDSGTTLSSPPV
parameter-measured: pIC50
Remember, pIC50 is on a log scale: it is -log10 of the molar concentration.

Use the examples below as a reference point.
| mol-smiles | tgt | pIC50 |
| --- | --- | --- |
| Clc1ccc2c(Nc3ccc(-c4nc5ccccc5s4)cc3)ccnc2c1 | Vascular endothelial growth factor receptor 2 (Homo sapiens) | 6.19 |
| Cc1cc2c(Nc3ccc(-c4nc5ccccc5s4)cc3)ncnc2cc1Cl | Vascular endothelial growth factor receptor 2 (Homo sapiens) | 6.00 |
| CNc1nccc(Nc2ccc(-c3nc4ccccc4s3)cc2)n1 | Vascular endothelial growth factor receptor 2 (Homo sapiens) | 5.05 |
| COc1cc(Nc2ncnc3nc[nH]c23)ccc1-c1nc2ccccc2s1 | Vascular endothelial growth factor receptor 2 (Homo sapiens) | 5.04 |

Would you kindly look at the next entry?
Enter recorded pIC50 with Vascular endothelial growth factor receptor 2 (Homo sapiens) for "Fc1cc(-c2nc3ccccc3s2)ccc1Nc1ncnc2cc(Cl)ccc12" here.
6.10

All values here come from ChEMBL document CHEMBL1153282.
